- Study Target: HIV-1 protease (Human immunodeficiency virus type 1 group M subtype B)
Parameter Measured: IC50

Q: # input compound: COc1cccc2[nH]c(C(=O)N[C@@H](CC(C)C)C(=O)N[C@@H](C[C@@H]3CCNC3=O)C(=O)CO)cc12 ; wanted: its IC50
Ans: > 11 µM

----------
- Study Target: CYP2D6 (Homo sapiens)
- Sequence (P10635 whole entry): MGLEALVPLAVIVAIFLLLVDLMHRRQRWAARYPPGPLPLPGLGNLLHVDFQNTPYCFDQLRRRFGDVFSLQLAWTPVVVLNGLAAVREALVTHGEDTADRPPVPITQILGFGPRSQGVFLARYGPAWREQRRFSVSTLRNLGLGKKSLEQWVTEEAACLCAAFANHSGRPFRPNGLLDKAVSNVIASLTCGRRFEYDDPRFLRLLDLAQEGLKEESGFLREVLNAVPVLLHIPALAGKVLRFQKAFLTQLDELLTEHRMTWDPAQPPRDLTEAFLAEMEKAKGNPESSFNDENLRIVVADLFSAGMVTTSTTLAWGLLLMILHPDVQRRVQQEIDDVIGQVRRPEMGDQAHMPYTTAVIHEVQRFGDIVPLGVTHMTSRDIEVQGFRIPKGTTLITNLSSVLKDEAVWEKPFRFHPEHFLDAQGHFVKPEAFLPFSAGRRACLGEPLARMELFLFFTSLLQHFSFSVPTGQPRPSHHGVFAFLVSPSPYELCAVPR
- Assay Details: Reversible CYP inhibition in human liver microsomes
- Assay Conditions: human, microsomes, pH 7.4, Percent of Control Activity, CYP 2D6, 0.398 µM, 30-Minute Preincubation
Parameter Measured: activity at 0.398 µM

Q: # input compound: COc1cccc2[nH]c(C(=O)N[C@@H](CC(C)C)C(=O)N[C@@H](C[C@@H]3CCNC3=O)C(=O)COP(=O)(O)O)cc12 [PF-07304814] ; wanted: its activity at 0.398 µM
Ans: 103%

Values were extracted from paper PMC8523698.
